Known GI50 of a selection of compounds
# Tested on: KM12
# Protocol Details: NCI tumour cell line growth inhibition, 48 h
Activity calls are given as the source filed them. Cut-off read from the data, not from the text of the source: active = GI50 up to about 1.1 µM and inactive = higher.

Compound | GI50
C=C[C@@]1(C)CC2CC[C@]3(C)C(C)=CC(=O)CC3[C@]2(C)CC1O (some centres not stated) | 85.3 µM (inactive)
Cc1cc(=O)[nH]c(-n2[nH]c3c(c2=O)CCCC3)n1 | > 100 µM (inactive)
OC(Cc1cccnc1)(c1ccccc1)c1ccccc1 | 59.7 µM (inactive)
C[n+]1ccc(/C2=C3\C=CC(=N3)/C(c3cc[n+](C)cc3)=c3/cc/c([nH]3)=C(\c3cc[n+](C)cc3)C3=N/C(=C(/c4cc[n+](C)cc4)C4C=CC2N4)C=C3)cc1 | 35.9 µM (inactive)
COc1cc2c(cc1OC)C(SC)C(=O)N(Cc1cccc(OC)c1OC)CC2 (configuration not stated) | 2.65 µM (inactive)
Cc1ccc2c(c1C)CC1(Cc3c(C)ccc(C)c3C1=O)C2=O (configuration not stated) | > 100 µM (inactive)
CN(CC(=O)O)Cc1c[nH]c2ccccc12 | > 100 µM (inactive)
c1nc(OCC2CCCCC2)c2nc[nH]c2n1 | 54.1 µM (inactive)
CC(C)(c1ccc(OC#N)cc1)c1ccc(OC#N)cc1 | > 100 µM (inactive)
Cc1cc(-c2cccc3ccccc23)c(C#N)c(=S)n1C1OC(CO)C(O)C(O)C1O (configuration not stated) | > 100 µM (inactive)
O=C(/C=C1\Nc2ccccc2C(=O)N1c1ccc(Cl)cc1)c1ccncc1 | > 100 µM (inactive)
CSc1nnc(SC)nn1 | 15.3 µM (inactive)
